- SYSTEM UNDER TEST: TBL1:β-catenin complex (Homo sapiens)
- Construct: endogenous in cells; host or cells: HCT15 (A2 also names HCT116)
- Sequence (O60907 1-577): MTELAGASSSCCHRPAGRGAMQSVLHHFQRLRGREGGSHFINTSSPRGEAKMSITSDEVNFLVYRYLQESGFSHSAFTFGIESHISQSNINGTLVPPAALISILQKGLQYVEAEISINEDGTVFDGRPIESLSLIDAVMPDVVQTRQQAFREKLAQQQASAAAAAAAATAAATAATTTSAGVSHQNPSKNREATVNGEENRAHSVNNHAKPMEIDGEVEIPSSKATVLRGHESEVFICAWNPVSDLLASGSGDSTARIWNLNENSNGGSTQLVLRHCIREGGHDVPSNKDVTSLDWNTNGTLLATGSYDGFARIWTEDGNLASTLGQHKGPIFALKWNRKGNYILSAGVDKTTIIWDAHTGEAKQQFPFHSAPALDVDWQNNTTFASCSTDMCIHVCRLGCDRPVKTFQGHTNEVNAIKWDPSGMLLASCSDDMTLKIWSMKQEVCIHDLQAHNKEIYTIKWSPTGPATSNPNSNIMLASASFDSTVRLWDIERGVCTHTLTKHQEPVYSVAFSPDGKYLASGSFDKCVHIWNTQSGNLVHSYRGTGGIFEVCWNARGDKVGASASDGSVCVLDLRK
- PROTOCOL SUMMARY: Sandwich ELISA capturing the TBL1:β-catenin complex from treated cell lysates
- Type: cell-based
- CONDITIONS USED: compound 0.3 nM to 3 μM for 6 h, cell lysates; read-out: EC50 μM TBL1: β-Catenine
READOUT LABEL: EC50
Phrase the answer as number then unit, nothing more needed.

INPUT: Name the reported EC50 value associated with the compound CC(Nc1ncnc2[nH]cnc12)c1cnn(-c2ccccc2F)c1 (stereo not shown)
OUTPUT: 0.41 µM
